Source of measurements: the NIST ThermoML archive (doi:10.1021/je200883w)

conditions: 298.15 K; 101.33 kPa; Liquid; Vibrating tube method
± gives the expanded uncertainty stated by the source.
// mass density lookup, one value per entry
measuredParameter: mass density

| compound | measuredParameter | recordedMeasurement |
| --- | --- | --- |
| CCCCn1cc[n+](C)c1C.O=S(=O)([N-]S(=O)(=O)C(F)(F)F)C(F)(F)F | mass density | 1419.4 ± 1.9 kg/m3 |
| CCCC[N+]1(C)CCCC1.FC(F)(F)C(F)(F)[P-](F)(F)(F)(C(F)(F)C(F)(F)F)C(F)(F)C(F)(F)F | mass density | 1583.2 ± 2.3 kg/m3 |
| CCCCCCOS(=O)(=O)[O-].CC[n+]1ccn(C)c1 [3-ethyl-1-methyl-1H-imidazolium hexyl sulfate] | mass density | 1130.4 ± 1.4 kg/m3 |
| CCCC[N+]1(C)CCCC1.O=S(=O)([O-])C(F)(F)F [1-butyl-1-methylpyrrolidinium trifluoromethanesulfonate] | mass density | 1252.4 ± 1.6 kg/m3 |
| COCC[N+]1(C)CCCC1.O=S(=O)([N-]S(=O)(=O)C(F)(F)F)C(F)(F)F | mass density | 1454.7 ± 2 kg/m3 |
| CCOS(=O)(=O)[O-].CCn1cc[n+](C)c1 [1-ethyl-3-methylimidazolium ethyl sulfate] | mass density | 1237.8 ± 1.6 kg/m3 |
| CCCC[N+]1(C)CCCC1.O=S(=O)([N-]S(=O)(=O)C(F)(F)F)C(F)(F)F | mass density | 1394.9 ± 1.9 kg/m3 |
| CCCCCCCCCCCCCC[P+](CCCCCC)(CCCCCC)CCCCCC.FC(F)(F)C(F)(F)[P-](F)(F)(F)(C(F)(F)C(F)(F)F)C(F)(F)C(F)(F)F | mass density | 1181.7 ± 1.5 kg/m3 |

###

settings: 373.15 K; 101.33 kPa; Liquid; Vibrating tube method
// mass density lookup, one value per entry

| compound | unitSpec | mass density |
| --- | --- | --- |
| CCCC[N+]1(C)CCCC1.FC(F)(F)C(F)(F)[P-](F)(F)(F)(C(F)(F)C(F)(F)F)C(F)(F)C(F)(F)F | kg/m3 | 1505.5 |
| COCC[N+]1(C)CCCC1.O=S(=O)([N-]S(=O)(=O)C(F)(F)F)C(F)(F)F | kg/m3 | 1385.7 |
| CCCCCCOS(=O)(=O)[O-].CC[n+]1ccn(C)c1 [3-ethyl-1-methyl-1H-imidazolium hexyl sulfate] | kg/m3 | 1082.3 |
| CCCCn1cc[n+](C)c1C.O=S(=O)([N-]S(=O)(=O)C(F)(F)F)C(F)(F)F | kg/m3 | 1351.3 |
| CCCC[N+]1(C)CCCC1.O=S(=O)([O-])C(F)(F)F [1-butyl-1-methylpyrrolidinium trifluoromethanesulfonate] | kg/m3 | 1199.2 |
| CCOS(=O)(=O)[O-].CCn1cc[n+](C)c1 [1-ethyl-3-methylimidazolium ethyl sulfate] | kg/m3 | 1188.2 |
| CCCC[N+]1(C)CCCC1.O=S(=O)([N-]S(=O)(=O)C(F)(F)F)C(F)(F)F | kg/m3 | 1330.3 |
| CCCCCCCCCCCCCC[P+](CCCCCC)(CCCCCC)CCCCCC.FC(F)(F)C(F)(F)[P-](F)(F)(F)(C(F)(F)C(F)(F)F)C(F)(F)C(F)(F)F | kg/m3 | 1121.1 |

###

settings: 323.15 K; 101.33 kPa; Liquid; Vibrating tube method

| compound | unitSpec | mass density |
| --- | --- | --- |
| CCCC[N+]1(C)CCCC1.FC(F)(F)C(F)(F)[P-](F)(F)(F)(C(F)(F)C(F)(F)F)C(F)(F)C(F)(F)F | kg/m3 | 1556.9 |
| COCC[N+]1(C)CCCC1.O=S(=O)([N-]S(=O)(=O)C(F)(F)F)C(F)(F)F | kg/m3 | 1431.2 |
| CCOS(=O)(=O)[O-].CCn1cc[n+](C)c1 [1-ethyl-3-methylimidazolium ethyl sulfate] | kg/m3 | 1220.8 |
| CCCCCCOS(=O)(=O)[O-].CC[n+]1ccn(C)c1 [3-ethyl-1-methyl-1H-imidazolium hexyl sulfate] | kg/m3 | 1114 |

###

// mass density lookup, one value per entry
conditions: 328.15 K; 101.33 kPa; Liquid; Vibrating tube method

| compound | unitSpec | mass density |
| --- | --- | --- |
| CCOS(=O)(=O)[O-].CCn1cc[n+](C)c1 [1-ethyl-3-methylimidazolium ethyl sulfate] | kg/m3 | 1217.4 |
| CCCCCCCCCCCCCC[P+](CCCCCC)(CCCCCC)CCCCCC.FC(F)(F)C(F)(F)[P-](F)(F)(F)(C(F)(F)C(F)(F)F)C(F)(F)C(F)(F)F | kg/m3 | 1157.3 |
| CCCC[N+]1(C)CCCC1.FC(F)(F)C(F)(F)[P-](F)(F)(F)(C(F)(F)C(F)(F)F)C(F)(F)C(F)(F)F | kg/m3 | 1551.7 |
| COCC[N+]1(C)CCCC1.O=S(=O)([N-]S(=O)(=O)C(F)(F)F)C(F)(F)F | kg/m3 | 1426.6 |

###

// mass density lookup, one value per entry
details: 283.15 K; 101.33 kPa; Liquid; Vibrating tube method

| molecule | unitSpec | mass density |
| --- | --- | --- |
| CCCCCCCCCCCCCC[P+](CCCCCC)(CCCCCC)CCCCCC.FC(F)(F)C(F)(F)[P-](F)(F)(F)(C(F)(F)C(F)(F)F)C(F)(F)C(F)(F)F | kg/m3 | 1194.6 |
| CCCCCCOS(=O)(=O)[O-].CC[n+]1ccn(C)c1 [3-ethyl-1-methyl-1H-imidazolium hexyl sulfate] | kg/m3 | 1140.9 |
| CCCC[N+]1(C)CCCC1.FC(F)(F)C(F)(F)[P-](F)(F)(F)(C(F)(F)C(F)(F)F)C(F)(F)C(F)(F)F | kg/m3 | 1599.8 |
| CCCCn1cc[n+](C)c1C.O=S(=O)([N-]S(=O)(=O)C(F)(F)F)C(F)(F)F | kg/m3 | 1433.5 |

###

settings: 323.15 K; 101.33 kPa; Liquid; Vibrating tube method
// mass density lookup, one value per entry
measuredParameter: mass density (kg/m3)

| compound | recordedMeasurement |
| --- | --- |
| CCCCn1cc[n+](C)c1C.O=S(=O)([N-]S(=O)(=O)C(F)(F)F)C(F)(F)F | 1396.4 |
| CCCC[N+]1(C)CCCC1.O=S(=O)([N-]S(=O)(=O)C(F)(F)F)C(F)(F)F | 1373 |
| CCCC[N+]1(C)CCCC1.O=S(=O)([O-])C(F)(F)F [1-butyl-1-methylpyrrolidinium trifluoromethanesulfonate] | 1234.4 |
| CCCCCCCCCCCCCC[P+](CCCCCC)(CCCCCC)CCCCCC.FC(F)(F)C(F)(F)[P-](F)(F)(F)(C(F)(F)C(F)(F)F)C(F)(F)C(F)(F)F | 1161.3 |

###

details: 313.15 K; 101.33 kPa; Liquid; Vibrating tube method
Numbers after ± are expanded uncertainties.
// mass density lookup, one value per entry

| compound | mass density |
| --- | --- |
| CCCCCCOS(=O)(=O)[O-].CC[n+]1ccn(C)c1 [3-ethyl-1-methyl-1H-imidazolium hexyl sulfate] | 1120.5 ± 1.4 kg/m3 |
| CCCC[N+]1(C)CCCC1.FC(F)(F)C(F)(F)[P-](F)(F)(F)(C(F)(F)C(F)(F)F)C(F)(F)C(F)(F)F | 1567.4 ± 2.3 kg/m3 |
| CCCC[N+]1(C)CCCC1.O=S(=O)([O-])C(F)(F)F [1-butyl-1-methylpyrrolidinium trifluoromethanesulfonate] | 1241.5 ± 1.6 kg/m3 |
| CCCCn1cc[n+](C)c1C.O=S(=O)([N-]S(=O)(=O)C(F)(F)F)C(F)(F)F | 1405.5 ± 1.9 kg/m3 |
| CCCCCCCCCCCCCC[P+](CCCCCC)(CCCCCC)CCCCCC.FC(F)(F)C(F)(F)[P-](F)(F)(F)(C(F)(F)C(F)(F)F)C(F)(F)C(F)(F)F | 1169.4 ± 1.5 kg/m3 |
| CCCC[N+]1(C)CCCC1.O=S(=O)([N-]S(=O)(=O)C(F)(F)F)C(F)(F)F | 1381.8 ± 1.9 kg/m3 |
| COCC[N+]1(C)CCCC1.O=S(=O)([N-]S(=O)(=O)C(F)(F)F)C(F)(F)F | 1440.5 ± 2 kg/m3 |
| CCOS(=O)(=O)[O-].CCn1cc[n+](C)c1 [1-ethyl-3-methylimidazolium ethyl sulfate] | 1227.6 ± 1.6 kg/m3 |

###

// mass density lookup, one value per entry
details: 293.15 K; 101.33 kPa; Liquid; Vibrating tube method
measuredParameter: mass density (kg/m3)

| compound | recordedMeasurement |
| --- | --- |
| CCCC[N+]1(C)CCCC1.O=S(=O)([N-]S(=O)(=O)C(F)(F)F)C(F)(F)F | 1399.3 |
| COCC[N+]1(C)CCCC1.O=S(=O)([N-]S(=O)(=O)C(F)(F)F)C(F)(F)F | 1459.3 |
| CCCC[N+]1(C)CCCC1.FC(F)(F)C(F)(F)[P-](F)(F)(F)(C(F)(F)C(F)(F)F)C(F)(F)C(F)(F)F | 1588.6 |
| CCCCCCOS(=O)(=O)[O-].CC[n+]1ccn(C)c1 [3-ethyl-1-methyl-1H-imidazolium hexyl sulfate] | 1133.8 |
| CCOS(=O)(=O)[O-].CCn1cc[n+](C)c1 [1-ethyl-3-methylimidazolium ethyl sulfate] | 1241.3 |
| CCCC[N+]1(C)CCCC1.O=S(=O)([O-])C(F)(F)F [1-butyl-1-methylpyrrolidinium trifluoromethanesulfonate] | 1256.1 |
| CCCCCCCCCCCCCC[P+](CCCCCC)(CCCCCC)CCCCCC.FC(F)(F)C(F)(F)[P-](F)(F)(F)(C(F)(F)C(F)(F)F)C(F)(F)C(F)(F)F | 1186 |
| CCCCn1cc[n+](C)c1C.O=S(=O)([N-]S(=O)(=O)C(F)(F)F)C(F)(F)F | 1424 |
